The reported measurements were obtained from the supplement of paper PMC10567573.

B1: MCOLN1 (parent)
chain: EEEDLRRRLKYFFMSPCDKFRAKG

variants of: B1; assay: protein stability index of a GFP-peptide fusion (GPS, HEK-293T) (PSI 1-6); higher = more stable; details: c terminus: a fixed tail appended;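 further: lentivirally expressed fusions sorted by FACS into six bins by GFP to DsRed ratio, PSI derived from sequencing read proportions per bin multiplied by bin number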
Decide by protein stability index: equal to or exceeding 3 means class 1, less means class 0.

[[record]]
variant_key = "M14F"
assigned_category = "class 0"

[[record]]
variant_key = "K10T"
assigned_category = "class 0"

[[record]]
variant_key = "F20K"
assigned_category = "class 1"

[[record]]
variant_key = "E3D"
assigned_category = "class 0"

[[record]]
variant_key = "D18I"
assigned_category = "class 0"

[[record]]
variant_key = "F20H"
assigned_category = "class 0"

[[record]]
variant_key = "E2T"
assigned_category = "class 0"

[[record]]
variant_key = "F12E"
assigned_category = "class 1"

[[record]]
variant_key = "D18Q"
assigned_category = "class 0"

[[record]]
variant_key = "F20C"
assigned_category = "class 0"

[[record]]
variant_key = "R7F"
assigned_category = "class 0"

[[record]]
variant_key = "Y11G"
assigned_category = "class 1"

[[record]]
variant_key = "Y11Q"
assigned_category = "class 1"

[[record]]
variant_key = "M14I"
assigned_category = "class 0"

[[record]]
variant_key = "K10E"
assigned_category = "class 0"

[[record]]
variant_key = "R7L"
assigned_category = "class 0"

[[record]]
variant_key = "K23S"
assigned_category = "class 0"

[[record]]
variant_key = "D4W"
assigned_category = "class 0"

[[record]]
variant_key = "R21V"
assigned_category = "class 0"

